I'd be grateful if you could share measured % from t0 for these entries.
- Measurement Context: human, 2 h, 500 ng/mL
Record the value in %, omitting the unit from your answer.

Lookup: Entry O=c1nc(N2CCN(CC3CCCCC3O)CC2)sc2c([N+](=O)[O-])cc(C(F)(F)F)cc12 (stereo not drawn) : reported % from t0 = ?
Found: -15

Lookup: Need % from t0, item O=C1CCCC(CN2CCN(c3nc(=O)c4cc(C(F)(F)F)cc([N+](=O)[O-])c4s3)CC2)C1 (stereo not drawn)
Found: -31

Lookup: For the compound shown here, `O=c1nc(N2CCN(CC3CCCCC3)CC2)sc2c([N+](=O)[O-])cc(C(F)(F)F)cc12` , give the reported % from t0.
Found: -4

Lookup: Using the record for O=c1nc(N2CCN(CC3CCCC(O)C3)CC2)sc2c([N+](=O)[O-])cc(C(F)(F)F)cc12 (stereo not drawn) , report its % from t0.
Found: 9

Lookup: Item under review: `O=c1nc(N2CCN(CC3(O)CCCCC3)CC2)sc2c([N+](=O)[O-])cc(C(F)(F)F)cc12` . Reported % from t0?
Found: -6

Lookup: So what does the record say about % from t0 for `O=C(C1CCCCC1)N1CCN(c2nc(=O)c3cc(C(F)(F)F)cc([N+](=O)[O-])c3s2)CC1` ?
Found: -5

---

I'd appreciate it if you could supply % from t0 values for the items below.
- Measurement Context: processed extract sample, RT, 24h, level H (QC 1500 ng/mL)
Field format: number, assumed %, no unit text.

Lookup: Field request: % from t0 | item: O=c1nc(N2CCN(CC3CCCC(O)C3)CC2)sc2c([N+](=O)[O-])cc(C(F)(F)F)cc12 (stereo not drawn) [Met 3-OH]
Found: -14

Lookup: Endpoint output: % from t0 of O=c1nc(N2CCN(CC3(O)CCCCC3)CC2)sc2c([N+](=O)[O-])cc(C(F)(F)F)cc12 [Met 1-OH] . Value?
Found: -12

Lookup: Requested read-out: % from t0. Entry: O=c1nc(N2CCN(CC3CCCCC3)CC2)sc2c([N+](=O)[O-])cc(C(F)(F)F)cc12 [PBTZ169, macozinone]
Found: -8

Lookup: Any idea what its % from t0 is? The molecule is O=C1CCCC(CN2CCN(c3nc(=O)c4cc(C(F)(F)F)cc([N+](=O)[O-])c4s3)CC2)C1 (stereo not drawn) [Met 3-oxo]
Found: -10

Lookup: Need % from t0, item O=C(C1CCCCC1)N1CCN(c2nc(=O)c3cc(C(F)(F)F)cc([N+](=O)[O-])c3s2)CC1 [Met oxo]
Found: 25

Lookup: Can you look up the measured % from t0 of O=c1nc(N2CCN(CC3CCCCC3O)CC2)sc2c([N+](=O)[O-])cc(C(F)(F)F)cc12 (stereo not drawn) [Met 2-OH] for me?
Found: -18

---

- Measurement Context: human, 2 h, 20 ng/mL
Please provide measured % from t0 for the entries that follow.
Record the value in %, omitting the unit from your answer.

Lookup: Please report the recorded % from t0 for O=C(C1CCCCC1)N1CCN(c2nc(=O)c3cc(C(F)(F)F)cc([N+](=O)[O-])c3s2)CC1 [Met oxo] .
Found: -4

Lookup: I am curious: what % from t0 value has been reported for O=c1nc(N2CCN(CC3CCCC(O)C3)CC2)sc2c([N+](=O)[O-])cc(C(F)(F)F)cc12 (stereo not drawn) [Met 3-OH] ?
Found: 7

Lookup: Any idea what its % from t0 is? The compound is O=c1nc(N2CCN(CC3(O)CCCCC3)CC2)sc2c([N+](=O)[O-])cc(C(F)(F)F)cc12 [Met 1-OH]
Found: -2

Lookup: Any idea what % from t0 was measured for O=c1nc(N2CCN(CC3CCCCC3O)CC2)sc2c([N+](=O)[O-])cc(C(F)(F)F)cc12 (stereo not drawn) [Met 2-OH] ?
Found: -1

Lookup: So what does the record say about % from t0 for O=C1CCCC(CN2CCN(c3nc(=O)c4cc(C(F)(F)F)cc([N+](=O)[O-])c4s3)CC2)C1 (stereo not drawn) [Met 3-oxo] ?
Found: -9

Lookup: State the recorded % from t0 for this entry: O=c1nc(N2CCN(CC3CCCCC3)CC2)sc2c([N+](=O)[O-])cc(C(F)(F)F)cc12 [PBTZ169, macozinone]
Found: 2
